Test system: Fibroblast
Assay: Multiplex assay against human fibroblast
Assay type: toxicity, cell-based
Conditions: 24 h, 1 µM, compound concentration 1 uM, replicate 2
Attribute: Population Mitochondria Different-Phenotype (%)
Answer with a number only, understood to be in %.

Examples with answers:
[[record]]
compound = "CC(F)(F)CN1CCOc2c(nn(-c3ccccc3Cl)c2-c2ccc(Cl)cc2)C1=O"
endpoint_result = 10

[[record]]
compound = "CCC(=O)OCC(=O)[C@@]1(OC(=O)CC)[C@@H](C)C[C@H]2[C@@H]3CCC4=CC(=O)C=C[C@]4(C)[C@@]3(Cl)[C@@H](O)C[C@@]21C [BECLOMETHASONE DIPROPIONATE]"
endpoint_result = 7

[[record]]
compound = "Cc1cc(=O)n(C)c2cc(N3C(=O)CC[C@H](NS(=O)(=O)CC(C)C)[C@H]3c3ccc(Cl)cc3)ccc12"
endpoint_result = 5


Moving on to the next compound.
Prompt: Requested read-out: Population Mitochondria Different-Phenotype (%). Entry: O=C(Nc1cc(-c2ccccc2)nn1-c1ccccc1F)c1ccc([N+](=O)[O-])cc1
Completion: 2

----------
System: HEK-293T
Test: Multiplex assay against HEK293T
Assay type: toxicity, cell-based
Details: human, 24 h, 1 µM, compound concentration 1 uM, replicate 2
measured.attribute: Population Pyknosed Nuclei (%)
Answer with a number only, understood to be in %.

[[record]]
molecule = "COc1ccc2c(c1OCc1ccccc1)C[C@@H](C(=O)O)N(C(=O)C(c1ccccc1)c1ccccc1)C2 [OLODANRIGAN]"
endpoint_result = 8

[[record]]
molecule = "Cc1cc(=O)n(C)c2cc(N3C(=O)CC[C@H](NS(=O)(=O)CC(C)C)[C@H]3c3ccc(Cl)cc3)ccc12"
endpoint_result = 13

[[record]]
molecule = "N[C@](CC1c2ccccc2Oc2ccccc21)(C(=O)O)[C@H]1C[C@@H]1C(=O)O"
endpoint_result = 6

[[record]]
molecule = "Cl.Cl.OCCOCCN1CCN(C(c2ccccc2)c2ccc(Cl)cc2)CC1 (centres undefined) [HYDROXYZINE HYDROCHLORIDE]"
endpoint_result = 9

[[record]]
molecule = "O=c1ccc2ccc(OCCCCN3CCN(c4cccc5sccc45)CC3)cc2[nH]1 [BREXPIPRAZOLE]"
endpoint_result = 7

[[record]]
molecule = "Nc1nc(-c2ccco2)c2cnn(Cc3ccccc3F)c2n1"
endpoint_result = 9

[[record]]
molecule = "COCCCN1CCC(NC(=O)c2cc(Cl)c(N)c3c2OCC3)CC1 [PRUCALOPRIDE]"
endpoint_result = 6

[[record]]
molecule = "COc1cc(C(=O)N2CC[C@@H](O)[C@@H](N)C2)cc2nc(-c3cc4ccccc4n3CC3CC3)n(C)c12.Cl"
endpoint_result = 12


Prompt: Requested read-out: Population Pyknosed Nuclei (%). Entry: COCCn1c(C)c(C)s/c1=N\C(=O)C1C(C)(C)C1(C)C
Completion: 10

----------
Attribute: Population Membrane Permeable-Phenotype (%)
Test system: Fibroblast
Assay: Multiplex assay against human fibroblast
Format: toxicity, cell-based
Conditions: 12 h, 1 µM, compound concentration 1 uM, replicate 1
Answer with a number only, understood to be in %.

Examples with answers:
[[record]]
compound = "COc1ccc2c(c1OCc1ccccc1)C[C@@H](C(=O)O)N(C(=O)C(c1ccccc1)c1ccccc1)C2 [OLODANRIGAN]"
measurement_units = "%"
endpoint_result = 1

[[record]]
compound = "CN1C[C@H](C(=O)N[C@]2(C)O[C@@]3(O)[C@@H]4CCCN4C(=O)[C@H](Cc4ccccc4)N3C2=O)C[C@@H]2c3cccc4[nH]cc(c34)C[C@H]21.CS(=O)(=O)O [DIHYDROERGOTAMINE MESYLATE]"
measurement_units = "%"
endpoint_result = 1

[[record]]
compound = "Cc1nn(C)c2nc(NNC(=O)Nc3cc(Cl)nc(Cl)c3)cc(C(C)C)c12"
measurement_units = "%"
endpoint_result = 0

[[record]]
compound = "COCCCN1CCC(NC(=O)c2cc(Cl)c(N)c3c2OCC3)CC1 [PRUCALOPRIDE]"
measurement_units = "%"
endpoint_result = 0

[[record]]
compound = "C=CCN1C[C@H](C(=O)N(CCCN(C)C)C(=O)NCC)C[C@@H]2c3cccc4[nH]cc(c34)C[C@H]21 [CABERGOLINE]"
measurement_units = "%"
endpoint_result = 0

[[record]]
compound = "Cc1cc(O)c(-c2ccc([C@@H](C)CN(C)C)cc2)c2c1[nH]c(=O)c1sccc12"
measurement_units = "%"
endpoint_result = 1


Moving on to the next compound.
Prompt: Missing value: Population Membrane Permeable-Phenotype (%), Fibroblast, entry Cn1cc(C(=O)OCC2CCN(CCNS(C)(=O)=O)CC2)c2ccccc21 . Fill in?
Completion: 0

----------
Test system: Fibroblast
Assay: Multiplex assay against human fibroblast
Assay type: toxicity, cell-based
Details: 12 h, 1 µM, compound concentration 1 uM, replicate 2
measured.attribute: Population Tubulin-Different-Phenotype (%)
Give the value; after it, write the unit.

Examples with answers:
[[record]]
molecule = "O=c1ccc2ccc(OCCCCN3CCN(c4cccc5sccc45)CC3)cc2[nH]1"
assay_target = "Fibroblast"
endpoint_result = "73%"

[[record]]
molecule = "CCCCC[C@H](O)/C=C/[C@H]1[C@H](O)CC(=O)[C@@H]1CCCCCCC(=O)O"
assay_target = "Fibroblast"
endpoint_result = "38%"

[[record]]
molecule = "Cc1ccc(OCC(O)C(C)NC(C)C)c2c1CCC2.Cl (stereo not given)"
assay_target = "Fibroblast"
endpoint_result = "50%"

[[record]]
molecule = "Cn1cc(C(=O)OCC2CCN(CCNS(C)(=O)=O)CC2)c2ccccc21"
assay_target = "Fibroblast"
endpoint_result = "37%"


Prompt: Requested read-out: Population Tubulin-Different-Phenotype (%). Entry: Cc1nn(C)c2nc(NNC(=O)Nc3cc(Cl)nc(Cl)c3)cc(C(C)C)c12
Completion: 46%

----------
Tested on: Fibroblast
Assay: Multiplex assay against human fibroblast
Format: toxicity, cell-based
Settings: 24 h, 10 µM, compound concentration 10 uM, replicate 1
Attribute: Population Normal (%)
Answer with a number only, understood to be in %.

[[record]]
compound = "O=C(NCCNCC(O)COc1ccc(O)cc1)N1CCOCC1.O=C(NCCNCC(O)COc1ccc(O)cc1)N1CCOCC1.O=C(O)/C=C/C(=O)O (configuration not stated) [XAMOTEROL FUMARATE]"
measurement_units = "%"
endpoint_result = 98

[[record]]
compound = "O=C(O)CCC/C=C\\CC1C(O)CC(O)C1/C=C/C(O)COc1cccc(Cl)c1 (configuration not stated)"
measurement_units = "%"
endpoint_result = 87


Prompt: Missing value: Population Normal (%), Fibroblast, entry OCCCNc1cc(-c2ccnc(Nc3cccc(Cl)c3)n2)ccn1 . Fill in?
Completion: 88

Prompt: Missing value: Population Normal (%), Fibroblast, entry C=CCN1C[C@H](C(=O)N(CCCN(C)C)C(=O)NCC)C[C@@H]2c3cccc4[nH]cc(c34)C[C@H]21 . Fill in?
Completion: 98

Prompt: Missing value: Population Normal (%), Fibroblast, entry COCCn1c(C)c(C)s/c1=N\C(=O)C1C(C)(C)C1(C)C . Fill in?
Completion: 95

Prompt: Missing value: Population Normal (%), Fibroblast, entry Cc1cc(NC(=O)NCCN2CCC(O)(Cc3ccccc3)CC2)c2ccccc2n1 . Fill in?
Completion: 98

Prompt: Missing value: Population Normal (%), Fibroblast, entry COc1c(Nc2ccc(S(C)(=O)=O)nc2C)ncnc1OC1CCN(C(=O)OC(C)C)CC1 . Fill in?
Completion: 94

Prompt: Missing value: Population Normal (%), Fibroblast, entry CN(C)C(=O)Cn1cc(-c2ccc(-c3nnc4ccccn34)cc2)cn1 . Fill in?
Completion: 94

Prompt: Missing value: Population Normal (%), Fibroblast, entry O=C(Nc1cc(-c2ccccc2)nn1-c1ccccc1F)c1ccc([N+](=O)[O-])cc1 . Fill in?
Completion: 95

Prompt: Missing value: Population Normal (%), Fibroblast, entry Cl.Cl.OCCOCCN1CCN(C(c2ccccc2)c2ccc(Cl)cc2)CC1 (configuration not stated) [HYDROXYZINE HYDROCHLORIDE] . Fill in?
Completion: 98

Prompt: Missing value: Population Normal (%), Fibroblast, entry Cc1c(Cc2ccc3ccccc3n2)c2cc(F)ccc2n1CC(=O)O . Fill in?
Completion: 97

Prompt: Missing value: Population Normal (%), Fibroblast, entry CCC(=O)OCC(=O)[C@@]1(OC(=O)CC)[C@@H](C)C[C@H]2[C@@H]3CCC4=CC(=O)C=C[C@]4(C)[C@@]3(Cl)[C@@H](O)C[C@@]21C [BECLOMETHASONE DIPROPIONATE] . Fill in?
Completion: 93

Prompt: Missing value: Population Normal (%), Fibroblast, entry COc1cc2nc(N3CCN(C(=O)COc4c(OC)cccc4C(C)C)CC3)nc(N)c2cc1OC.Cl.Cl . Fill in?
Completion: 60

Prompt: Missing value: Population Normal (%), Fibroblast, entry O=c1nc2[nH]c3ccccc3nc-2c(=O)[nH]1 . Fill in?
Completion: 96
